Listed next: entries and their corresponding z-score.
assay: plasmodial surface anion channel blockers, osmotic lysis – cell-based, P. falciparum Indochina, OD700, 18 h, primary screen (AID 1157); details: P. falciparum Indochina infected erythrocytes, osmotic lysis OD700, 18 h; higher = more signal, called active from +8 up or from −8 down
Answer field: number only, no words.

compound	quantityKind	numericReadout
C=C(COC)/C(=C/C[C@H](OC(C)=O)c1ccccc1OCCO)c1cnc2ccccc2c1	z-score	0.799
O=C1OCCC=C[C@H]2OC34C=CCN(CCN5CCOCC5)C(=O)[C@H]3N(CCO)C(=O)[C@@H]4C12 (stereo not given in full)	z-score	0.551
CCCCC(=C=CC[C@H](O)c1ccccc1OCCO)C[C@H](O)c1cc(Cl)cc(Cl)c1O	z-score	1.46
O=C1c2ccccc2[C@](Cc2ccccc2I)(C(=O)O)[C@H](c2ccc(CO)cc2)N1Cc1ccccc1C(F)(F)F	z-score	0.915
Cn1c2c(c3ccccc31)C(=O)C1NC2C=CC1(C)C(=O)OCc1ccccc1 (stereo not given)	z-score	0.484
COc1ccc(C#Cc2ccc3c(c2)[C@]2(C(=O)N3)[C@H](C(=O)N3CCN(c4ncccn4)CC3)[C@H]3C(=O)O[C@H](c4ccccc4)[C@H](c4ccccc4)N3[C@@H]2c2ccc(O)cc2)cc1	z-score	0.686
C=C(CCCC)C(=O)CC[C@@H](OC(=O)c1ccccc1-c1ccccc1C(=O)O)c1ccc(CO)o1	z-score	0.161
C=CC[C@@]1(C(=O)OC)N=C(c2ccc(OCCCO)cc2)O[C@@H]1c1ccccc1CN=[N+]=[N-]	z-score	3.48
C=CCC(OC(C)=O)[C@@H]1[C@@H](N(Cc2cc3ccccc3o2)C(=O)c2ccc(-c3ccccc3)cc2)c2cc(OCCCO)ccc2N1C(=O)Cc1ccc2ccccc2c1 (stereo not given in full)	z-score	0.26
CO[C@H]1O[C@H](CO)[C@@H](OC(=O)Nc2ccc3c(c2)OCO3)[C@H](OC(=O)Nc2ccc3c(c2)OCO3)[C@H]1OC(=O)Nc1ccc2c(c1)OCO2	z-score	0.519

# get_value(readout='z-score', item= CC(c1ccccc1)C(O)C1C=CC2C(=O)N(c3ccccc3)C(=O)C2N1Nc1ccccc1F (stereo not given) )
-0.865

Fill in the blank: the reported z-score of Cc1ccc(F)cc1S(=O)(=O)N[C@@H]1CCN(Cc2ccc(C(F)(F)F)cc2)C1 is ____.
0.624

Name the reported z-score value associated with the compound CN1C(=O)C2C=CC(C(O)C3=C[C@H]4C[C@@H](C3)C4(C)C)N(Nc3ccc([N+](=O)[O-])cc3[N+](=O)[O-])C2C1=O (stereo not given in full)
1.05

Fill blank: measured z-score of the compound C[N+](C)(C)CCCC[C@@H]1NC(=O)[C@@H]2C[C@H](C(=O)NCCCCCCNC(=O)CS)[C@H](c3cccc(OCCO)c3)N2C1=O is ____.
0.644

Consider the compound O=C1C[C@@](C(=O)O)(c2ccc([N+](=O)[O-])cc2)[C@@H](c2ccc(CO)cc2I)N1CC12CC3CC(CC(C3)C1)C2 and give its measured z-score.
2.73

* * *

assay: probe aNog binding to arrayed compounds – biochemical, biotinylated probe, 635/667 nm fluorescence, primary screen (AID 1115); settings: small-molecule microarray, higher = more signal;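 further: probe is biotinylated aNog protein used at 0.15 µg/mL for 1 h at 4 C; z-score combines 667 nm fluorescence of each spot with its signal to noise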
Decision: composite z-score >= -0.09 yields class 1, all other cases yield class 0.

The following compounds have reported results that may help.
compound	cat
O=C1C2C=CC(C(O)C3CC=CCC3)N(n3cnnc3)C2C(=O)N1Cc1ccccc1 (stereo not given)	class 1
CN(C)CCCC[C@@H]1NC(=O)[C@@H]2C[C@H](C(=O)NCCCCCN)[C@H](c3ccc(O)cc3)N2C1=O	class 1
C=CCOC(=O)[C@H]1[C@@H]2C(=O)O[C@@H](c3ccccc3)[C@@H](c3ccccc3)N2[C@@H](c2ccc(OCCOC(=O)[C@H]3C[C@H]4C(=O)N[C@@H](CCCC[N+](C)(C)C)C(=O)N4[C@H]3c3ccc(O)cc3)cc2)[C@]12C(=O)Nc1ccccc12	class 0
CC(=O)NCCCC[C@@H]1NC(=O)[C@@H]2C[C@H](C(=O)NCCCCCC[N+](C)(C)C)[C@H](c3cccc(OCCO)c3)N2C1=O	class 1

Determine whether this compound has composite z-score no lower than -0.09: C=C(CCCC)C(=O)CC[C@@H](OC(=O)c1ccccc1-c1ccccc1C(=O)O)c1ccc(CO)o1
class 0
